Attribution: patent US20040048790A1

# EXPERIMENTAL_SYSTEM: HLA-B*0702 (human)
# RUN_DESCRIPTION: 125I-probe peptide inhibition, purified HLA
pIC50: −log10 of the molar value.
PROPERTY_MEASURED: pIC50

(P) FPAPAAPTPA [p53.74.F1 (10-mer)]
(Q) FPAPSWPI [p53.86.F118]
Query: Endpoint returns the identifier whose pIC50 is numerically larger, either P or Q . Lab log: write the label of the selected item as the result.
Reply: P
(P: 9.10, Q: 6.92)

(a) FPAAPTPAAPA [p53.76.F1 (11-mer)]
(b) FPTPAAPI [p53.79.F118]
Query: Hey, between a and b which has a smaller measured pIC50? Lab log: write the label of the selected item as the result.
Reply: b

(a) FPAPAAPTPAA [p53.74.F1 (11-mer)]
(b) FPPVAPAPAI [p53.70.F1110]
Query: Hey, between a and b which has a smaller measured pIC50? Lab log: write the label of the selected item as the result.
Reply: b
